target_or_system: T1, human KDR-Fc fusion (R&D Systems #357-KD-050) (human, UniProt P35968 20-764)
T1 construct: bought
T1 sequence (P35968 20-764): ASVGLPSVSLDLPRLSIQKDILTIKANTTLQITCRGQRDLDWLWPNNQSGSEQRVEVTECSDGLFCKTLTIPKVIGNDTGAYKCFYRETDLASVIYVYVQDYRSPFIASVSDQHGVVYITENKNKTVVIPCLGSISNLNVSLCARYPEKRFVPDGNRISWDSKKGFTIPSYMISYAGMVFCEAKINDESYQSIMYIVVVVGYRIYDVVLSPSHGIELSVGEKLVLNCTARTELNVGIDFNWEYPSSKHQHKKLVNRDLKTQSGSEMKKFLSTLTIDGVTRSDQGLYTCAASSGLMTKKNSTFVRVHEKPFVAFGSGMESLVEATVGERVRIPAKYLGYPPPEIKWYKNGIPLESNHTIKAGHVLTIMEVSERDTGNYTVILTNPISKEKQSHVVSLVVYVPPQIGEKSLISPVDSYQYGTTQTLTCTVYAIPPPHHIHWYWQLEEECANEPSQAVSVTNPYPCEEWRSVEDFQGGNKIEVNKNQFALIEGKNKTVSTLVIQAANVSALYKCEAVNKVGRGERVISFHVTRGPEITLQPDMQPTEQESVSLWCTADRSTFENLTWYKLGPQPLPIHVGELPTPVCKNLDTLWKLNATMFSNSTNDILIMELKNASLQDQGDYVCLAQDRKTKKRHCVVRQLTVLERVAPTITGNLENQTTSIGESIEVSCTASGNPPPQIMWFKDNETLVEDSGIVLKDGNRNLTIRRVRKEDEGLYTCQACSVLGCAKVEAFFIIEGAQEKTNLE
procedure_details: fluorescence anisotropy, fluorescein-labeled peptide
Bridge positions count the residues as written; N and C are the ends.
# Lookup of reported Kd keyed by entry
assay_metric: Kd (nM)

INSERT INTO assay_data (binder, result) VALUES
  ('Ac-AGVNWCEEDWYYCWITGTGGGK-NH2 (disulfide 6-13 (inferred); not fully specified) [SEQ ID NO:280]', 260),
  ('Ac-AGVWECAKTFPFCHWFGTGGGK-NH2 (disulfide 6-13 (inferred); not fully specified) [SEQ ID NO:265]', 2600),
  ('Ac-GDSSVCFEYSWGGEVCFRYDPGGGK-NH2 (disulfide 6-16 (inferred); not fully specified; also: C-terminal Lys fluorescein-labeled in some assay forms) [SEQ ID NO:487]', 58),
  ('Ac-GDGWACAKWPWGGEICQPSDPGGGK-NH2 (disulfide 6-16 (inferred); not fully specified) [SEQ ID NO:300]', 1000);
